assay_explanation: In vitro inhibitory concentration against Cdc25A protein phosphatase
observable: IC50

Below, each entry is followed by its recorded IC50 result.
CCCCC(O)c1c(C/C=C/CO)cc2c(OC)c(OC)cc(OCc3ccccc3)c2c1OC (configuration not stated)	> 10 µg/mL
CCCCC(O)c1c(C/C=C/CO)cc2c(c1OC)C(=O)C=C(OC)C2=O (configuration not stated)	1.77 µg/mL
COc1cc(OCc2ccccc2)c2c(OC)cc(C[C@@H]3CCOC(C)(C)O3)cc2c1OC	> 10 µg/mL

Note to self: IC50 recorded for CCCCCC(O)c1c(C/C=C/CO)cc2c(c1OC)C(=O)C=C(NC)C2=O (configuration not stated) was > 10 µg/mL

Note to self: IC50 recorded for CCC(O)c1c(C/C=C/CO)cc2c(c1OC)C(=O)C=C(OC)C2=O (configuration not stated) was 1.86 µg/mL

Note to self: IC50 recorded for CCC(O)c1c(C/C=C/CO)cc2c(c1OC)C(=O)C=C(NC)C2=O (configuration not stated) was > 10 µg/mL
